Measured GI50, listed per entry.
tested on: A498; assay: NCI tumour cell line growth inhibition, 48 h
Active and inactive are the calls of the source. Cut-off read from the data, not from the text of the source: active = GI50 up to about 1.1 µM and inactive = higher.

Use the examples below as a reference point.
# Molecule, Target Or Test System, GI50
rows = [
    ("O=C(c1ccc(Cl)cc1)C1OC12C(=O)Nc1c(Cl)cc(Cl)cc12 (stereo not given)", "A498", "> 100 µM (inactive)"),
    ("COc1ccccc1/N=N/C(=N/NC(=O)c1ccc(C)cc1)c1ccc(N(CCC#N)CCC#N)cc1OC", "A498", "22.2 µM (inactive)"),
    ("CC(=O)OC(Cc1c(O)c2c(C)cccc2oc1=O)C(C)(C)O (stereo not given)", "A498", "> 100 µM (inactive)"),
]

GI50 lookup needed for "Cc1cc(O)c2c(c1O)C(=O)c1c(O)ccc(O)c1C2=O" , thanks.
> 100 µM (inactive)

So what's the measured GI50 for this one? O=C(O)c1c2c(cc3c1CC(Cc1ccccc1)C3=O)CCC2 (stereo not given)
> 100 µM (inactive)

# input molecule: CCOC(=O)C(O)(CC1=NC(C(=O)OC)(C(=O)OC)C(c2cccc(C=O)c2)O1)C(=O)OCC (stereo not given) ; wanted: its GI50
> 100 µM (inactive)

Param item = CC12CCc3ccccc3C1=NNC(=O)C2 (stereo not given) ; retrieve measured GI50.
> 100 µM (inactive)

Reported GI50 for "O=C(N/N=C/c1ccc([N+](=O)[O-])o1)c1ccc(C(=O)N/N=C/c2ccc([N+](=O)[O-])o2)cc1" : what is it?
8.87 µM (inactive)

What measured GI50 goes with CCOC(=O)C1C(=O)CC(O)(c2ccccc2)C(C(=O)OCC)C1c1ccc(OC)cc1 (stereo not given) ?
42.2 µM (inactive)

Request the reported GI50 associated with "COC(=O)c1c(C(=O)OC)c2ccccn2c1-c1cc(OC)c(Br)c(=O)o1"
> 100 µM (inactive)

Sample COC(=O)C(Cc1c[nH]c2ccccc12)NC1=Nc2ccncc2S(=O)(=O)N1c1ccccc1 (stereo not given) — what was its GI50?
> 100 µM (inactive)

Entry "COc1ccc(NCC#N)cc1" : reported GI50 = ?
> 100 µM (inactive)

Which value of GI50 has been reported for "CN(/N=C/c1cccc2cccnc12)c1ccc(Cl)cc1[N+](=O)[O-]" in the records?
> 100 µM (inactive)

# input molecule: "CCCn1c(=O)c2ccccc2[n+]2c(-c3ccc([N+](=O)[O-])cc3)csc12" ; wanted: its GI50
25.2 µM (inactive)

Look at this molecule and give its reported GI50. CCCC(=O)OCC1OC(n2ccc(N)nc2=O)C(OC(=O)CCC)C1OC(=O)CCC (stereo not given)
5.77 µM (inactive)
